System: OVCAR-8
Experiment: Cytotoxicity against human OVCAR8 cells assessed as growth inhibition after 48 hrs by SRB assay
Format: functional
Conditions: OVCAR-8, 48 h
Hi there, I'd appreciate the recorded GI50 for every entry that follows.
Reply with the number, then its unit.

Completed entries (count: 3):
COc1ccc2c(c1O)COCc1cc(OC)c(OC)c(OC)c1-2
200 nM
COc1ccc2c(c1)COCc1cc(OC)c(OC)c(OC)c1-2
310 nM
COc1cc2c(c(OC)c1OC)-c1cc3c(cc1COC2)OCO3
520 nM

Here is the next item to consider.
Query: Give its GI50 value. Item: COc1ccc2c(c1OP(=O)([O-])[O-])COCc1cc(OC)c(OC)c(OC)c1-2.[Na+].[Na+]
Response: 420 nM
